// data source = ChEMBL document CHEMBL1201862

Test system: SK-MEL-28
test.method.notes: NCI tumour cell line growth inhibition, 48 h
Active and inactive are the calls of the source. Rule as the data show it: active = GI50 up to about 1.1 µM and inactive = higher.
quantity.measured: GI50

[
  {
    "compound": "NS(=O)(=O)c1ccc(NC(=O)c2cc([N+](=O)[O-])cc([N+](=O)[O-])c2)cc1",
    "GI50": "> 100 µM (inactive)"
  }
]

Given item CCOC(=O)c1c(NC(=O)c2ccccc2)c(C#N)c2n1CCCCC2 , the value recorded as its GI50 is > 100 µM (inactive)

Given item CSc1nc(CO)c(CO)n1C , the value recorded as its GI50 is > 100 µM (inactive)

Given item c1ccc2c(OCC3CO3)ccc(OCC3CO3)c2c1 (centres undefined) , the value recorded as its GI50 is 9.98 µM (inactive)

====

Listed here are compounds together with their documented GI50.
Test system: MOLT-4
test.method.notes: NCI tumour cell line growth inhibition, 48 h
The source made the active and inactive calls. Cut-off read from the data, not from the text of the source: active = GI50 up to about 1.1 µM and inactive = higher.

Use these answered entries as a reference point.
[
  {
    "compound": "C/C(=N\\c1ccc(N(C)C)cc1)c1ccccc1",
    "GI50": "23.9 µM (inactive)"
  },
  {
    "compound": "COc1ccc(S(=O)(=O)NC(CCC(=O)NC(N)=O)C(=O)NC(N)=O)cc1 (stereo not given)",
    "GI50": "> 100 µM (inactive)"
  },
  {
    "compound": "Nc1nc2c(C(=O)O)c3ccc([N+](=O)[O-])cc3c(=O)n2c2ccccc12",
    "GI50": "14.4 µM (inactive)"
  },
  {
    "compound": "COC1/C=C\\C=C(/C)C(=O)NC2=CC(=O)C(NCCCl)=C(CC(C)CC(OC)C(O)C(C)/C=C(/C)C1OC(N)=O)C2=O (stereo not given)",
    "GI50": "0.052 µM (active)"
  }
]

Measured on MOLT-4, CC(C(=O)c1ccccc1)C(c1ccccc1)N1CCOCC1 (stereo not given) has a documented GI50 of 66.8 µM (inactive)
